# Tested on: TGF-b induced Endothelin-1 production
# protocol-text: ET-1 assay: inhibitory effect on TGF-b induced endothelin-1 production
# Type: cell-based
# particulars: Homo sapiens, Fibroblast; fibroblasts, stimulant (TGFb, serum, LPA etc), ET-1 in media by ELISA, 4-parameter fit
# Description: Assay of Inhibitory Effect on TGF-b Induced Endothelin-1 Production Fibroblasts (primary human lung and dermal, HFL-1, 3T3 etc) are seeded in 96-well plates at ˜15000 cells/well and serum starved for 0-48 hours. After media exchange, compounds serially diluted in DMSO are added to the cells. […] ET-1 is quantified using an ELISA kit (R&D Systems). The amount of ET-1 produced in the assay wells are back-calculated using the ELISA standard. […]
pEC50: −log10 of the molar value.
measurement-label: pEC50

Worked cases, pEC50 given:
Cc1ccc(=O)n(-c2ccccc2)n1 = < 3.70
Cc1n[nH]c(C)c1-c1ccc(=O)n(-c2ccc(Cl)cc2)c1 = < 3.70
CCOc1ccc(-n2cc(-c3cnn(C)c3)c(N(C)Cc3ccccc3)cc2=O)c(C)c1 = > 4.30
O=c1c2nccnc2ccn1-c1ccc(OC(F)(F)F)cc1 = > 4.30
O=c1ccc(-c2cn[nH]c2)cn1-c1cccc(C(F)(F)F)c1 = < 3.70
CC(=O)n1cc(-c2ccc(=O)n(-c3ccccc3)c2)cn1 = < 3.70

Q: Can you share its pEC50? I mean this compound: "Cc1cc(=O)n(-c2cccc(NC(=O)N(C)C)c2)cc1-c1ccc(F)cc1"
Result: > 4.30

Q: Can you share its pEC50? I mean this compound: "CCOc1ccc(-n2cc(-c3ccc(F)cc3)c3nccnc3c2=O)c(C)c1"
Result: < 3.70

Q: Can you share its pEC50? I mean this compound: "Cn1cc(-c2cn(-c3ccc(OC(F)(F)F)cc3)c(=O)c3c2ccn3Cc2ccccc2)cn1"
Result: > 4.30

Q: Can you share its pEC50? I mean this compound: "Cc1cc(=O)[nH]cc1-c1ccc2c(c1)OCC(=O)N2C"
Result: > 4.30

Q: Can you share its pEC50? I mean this compound: "Cc1cc(C)c(=O)n(-c2ccccc2)c1"
Result: < 3.70

---

# Tested on: TGF-b induced Endothelin-1 production
# protocol-text: ET-1 assay: inhibitory effect on TGF-b induced endothelin-1 production
# Format: cell-based
# particulars: Homo sapiens, Fibroblast; fibroblasts, stimulant (TGFb, serum, LPA etc), ET-1 in media by ELISA, 4-parameter fit
pEC50: −log10 of the molar value.
measurement-label: pEC50

Worked cases, pEC50 given:
Cc1nc2c(-c3cnn(C)c3)cn(-c3ccc(OC(F)(F)F)cc3)c(=O)c2s1 = > 4.30
COc1cc(=O)n(-c2ccc(OC(F)(F)F)cc2)cc1-c1ccc(F)cc1 = < 3.70
Cn1cc(-c2cn(-c3ccc(OC(F)(F)F)cc3)c(=O)cc2NCc2c(F)cccc2F)cn1 = 3.70 to 4.30
Cc1n[nH]c(C)c1-c1ccc(=O)n(-c2cccc(F)c2)c1 = < 3.70

Q: // lookup pEC50 | system=TGF-b induced Endothelin-1 production | key= "CCCCOC(=O)n1cc(-c2ccc(=O)n(-c3ccccc3)c2)cn1"
Result: 3.70 to 4.30

Q: // lookup pEC50 | system=TGF-b induced Endothelin-1 production | key= "Cc1nc2c(-c3cn[nH]c3)cn(-c3ccc(OC(F)(F)F)cc3)c(=O)c2s1"
Result: > 4.30

Q: // lookup pEC50 | system=TGF-b induced Endothelin-1 production | key= "Cc1cc(=O)n(-c2ccccc2)cc1-c1ccc(F)cc1"
Result: 3.70 to 4.30

Q: // lookup pEC50 | system=TGF-b induced Endothelin-1 production | key= "Cn1cc(-c2cn(-c3ccc(Cl)cc3)c(=O)c3nccnc23)cn1"
Result: < 3.70
